Source: patent US20250304559A1

study.target: SARS-CoV-2 3CL protease (Severe acute respiratory syndrome coronavirus 2, UniProt P0DTD1)
Construct: measures the activity of full-length SARS-CoV-2 3CL protease
test.summary: SARS-CoV-2 Coronavirus 3C Protease FRET Assay
Assay type: biochemical
test.parameters: Examples 14-78 and 114 (second head of Table 2); Morrison equation fit, 15 nM enzyme, 25 μM peptide substrate; read-out: Geometric Mean Ki (nM) IC50
Hi! Could you tag entries with Ki below 4 nM as true (1), and those at or above as false (0)? Much appreciated.

CC(C)[C@H](NC(=O)C(F)(F)F)C(=O)N1C[C@H]2[C@@H]([C@H]1C(=O)N[C@@H](C[C@@H]1CC(O)NC1=O)C(=O)COc1ccc(F)cc1F)C2(C)C (stereo partly shown) [Example 39] = true (1)
CC(C)[C@H](NC(=O)C(F)(F)F)C(=O)N1C[C@H]2[C@@H]([C@H]1C(=O)N[C@@H](C[C@@H]1CCNC1=O)C(=O)COc1cc(F)cc(F)c1)C2(C)C [Example 58] = false (0)
CCn1nc(C)cc1OCC(=O)[C@H](C[C@@H]1CCNC1=O)NC(=O)[C@@H]1[C@@H]2[C@H](CN1C(=O)[C@@H](NC(=O)C(F)(F)F)C(C)(C)C)C2(C)C [Example 27] = false (0)
CC(C)[C@H](NC(=O)C(F)(F)F)C(=O)N1C[C@H]2[C@@H]([C@H]1C(=O)N[C@@H](C[C@@H]1CCNC1=O)C(=O)COc1cc(F)ccc1F)C2(C)C [Example 53] = false (0)
COC(=O)N[C@H](C(=O)N1C[C@H]2[C@@H]([C@H]1C(=O)N[C@@H](C[C@@H]1CCNC1=O)C(=O)COc1cccc(Cl)c1)C2(C)C)C(C)C [Example 25] = true (1)
CCC(C(NC(=O)C(F)(F)F)C(=O)N1C[C@H]2[C@@H]([C@H]1C(=O)N[C@@H](C[C@@H]1CCNC1=O)C(=O)COc1ccc(F)cc1F)C2(C)C)C(F)(F)F (stereo in doubt) [Example 32] = true (1)
CC(C)[C@H](NC(=O)C(F)(F)F)C(=O)N1C[C@H]2[C@@H]([C@H]1C(=O)N[C@@H](C[C@@H]1CCNC1=O)C(=O)COc1ccccc1)C2(C)C [Example 23] = true (1)

---

Tested on: SARS-CoV-2 (USA_WA1/2020)
test.summary: Antiviral Activity from SARS-CoV-2 Infection (cytopathic effect, Cell Titer-Glo)
Format: cell-based
test.parameters: Severe acute respiratory syndrome coronavirus 2, Vero C1008, 72 h, VeroE6 cells enriched for hACE2, MOI 0.002, 3-day incubation; tested alone or with P-gp inhibitor CP-100356 2 μM (table does not say which); read-out: Geometric Mean EC50
readout.name: EC50 (nM)

COC(=O)N[C@H](C(=O)N1C[C@H]2[C@@H]([C@H]1C(=O)N[C@@H](C[C@@H]1CCNC1=O)C(=O)COc1ccccc1)C2(C)C)C(C)(C)C [Example 30] = 27.2
CC(C)[C@H](NC(=O)C(F)(F)F)C(=O)N1C[C@H]2[C@@H]([C@H]1C(=O)N[C@@H](C[C@@H]1CCNC1=O)C(=O)COc1cc(F)ccc1F)C2(C)C [Example 53] = 72.8
COC(=O)N[C@H](C(=O)N1C[C@H]2[C@@H]([C@H]1C(=O)N[C@@H](C[C@@H]1CCNC1=O)C(=O)COc1ccc(F)cc1)C2(C)C)C(C)(C)C [Example 21] = 18.8
COC(=O)N[C@H](C(=O)N1C[C@H]2[C@@H]([C@H]1C(=O)N[C@@H](C[C@@H]1CCNC1=O)C(=O)COc1cc(C(F)(F)F)nn1C)C2(C)C)C(C)C [Example 36] = 256
